Please go through the items and note down their pIC50.
biological target: human LPA1 (Homo sapiens); construct: expressed in transfected cells; host or cells: Chinese hamster ovary (CHO) cells; assay: LPA1 functional antagonist assay (LPA-induced calcium flux); format: cell-based; details: CHO cells overexpressing human LPA1; calcium flux induced by 10 nM LPA; read-out: hLPA1 IC50
Sequence (Q92633 whole entry): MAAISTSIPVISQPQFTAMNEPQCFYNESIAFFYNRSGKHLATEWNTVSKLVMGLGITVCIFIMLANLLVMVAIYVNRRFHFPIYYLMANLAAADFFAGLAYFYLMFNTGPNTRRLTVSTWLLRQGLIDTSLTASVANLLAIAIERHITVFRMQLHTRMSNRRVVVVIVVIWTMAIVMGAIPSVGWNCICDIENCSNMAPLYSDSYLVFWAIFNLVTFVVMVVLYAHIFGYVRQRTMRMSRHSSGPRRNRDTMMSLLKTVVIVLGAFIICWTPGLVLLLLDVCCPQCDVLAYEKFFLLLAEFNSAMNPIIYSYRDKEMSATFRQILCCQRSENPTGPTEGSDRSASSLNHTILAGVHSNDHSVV
Value format note: pIC50 is -log10 of concentration (mol/L); just state the number.

[in] For Cc1noc(-c2ccc(OC3CCCC(C#N)C3)cc2)c1COC(=O)N(C)C1CCCC1 (mixture of isomers) , what is its reported pIC50?
[out] 5.49

[in] What do we get for Cc1nc(-c2onc(C)c2COC(=O)N(C)Cc2cccc(Cl)c2)ccc1O[C@H]1CCC[C@H](C(=O)O)C1 ?
[out] 6.40

[in] What do we get for CCCCCN(C)C(=O)OCc1c(C)noc1-c1ccc(O[C@H]2CCC[C@H](C(=O)O)C2)c(C)n1 ?
[out] 8.00

[in] What do we get for CCCCN(C)C(=O)OC(C)c1c(C)noc1-c1ccc(O[C@H]2CCC[C@H](C(=O)O)C2)cc1 (stereo partly drawn) ?
[out] 7.22

[in] What do we get for Cc1nc(-c2onc(C)c2COC(=O)N(C)C2CCCC2)ccc1O[C@H]1CCC[C@@H](C(=O)O)C1 ?
[out] 7.57

[in] What do we get for Cc1nc(-c2onc(C)c2COC(=O)N(C)CCC(C)C)ccc1O[C@H]1CCC[C@H](C(=O)O)C1 ?
[out] 8.10

[in] What do we get for Cc1noc(-c2ccc(O[C@@H]3CCC[C@@H](CC(=O)O)C3)cc2)c1COC(=O)N(C)CCC(C)C ?
[out] 5.92

[in] What do we get for CCCCN(C)C(=O)OCc1c(C)noc1-c1ccc(O[C@H]2CCC[C@H](C(=O)O)C2)cc1 ?
[out] 7.55

[in] What do we get for Cc1noc(-c2ccc(O[C@@H]3CCC[C@@](F)(C(=O)O)C3)cc2)c1COC(=O)N(C)C1CCCC1 [Example 6] ?
[out] 6.99
